Biological target: Tyrosine-protein kinase ABL2 (Homo sapiens) (UniProt P42684)
Sequence (P42684 whole entry): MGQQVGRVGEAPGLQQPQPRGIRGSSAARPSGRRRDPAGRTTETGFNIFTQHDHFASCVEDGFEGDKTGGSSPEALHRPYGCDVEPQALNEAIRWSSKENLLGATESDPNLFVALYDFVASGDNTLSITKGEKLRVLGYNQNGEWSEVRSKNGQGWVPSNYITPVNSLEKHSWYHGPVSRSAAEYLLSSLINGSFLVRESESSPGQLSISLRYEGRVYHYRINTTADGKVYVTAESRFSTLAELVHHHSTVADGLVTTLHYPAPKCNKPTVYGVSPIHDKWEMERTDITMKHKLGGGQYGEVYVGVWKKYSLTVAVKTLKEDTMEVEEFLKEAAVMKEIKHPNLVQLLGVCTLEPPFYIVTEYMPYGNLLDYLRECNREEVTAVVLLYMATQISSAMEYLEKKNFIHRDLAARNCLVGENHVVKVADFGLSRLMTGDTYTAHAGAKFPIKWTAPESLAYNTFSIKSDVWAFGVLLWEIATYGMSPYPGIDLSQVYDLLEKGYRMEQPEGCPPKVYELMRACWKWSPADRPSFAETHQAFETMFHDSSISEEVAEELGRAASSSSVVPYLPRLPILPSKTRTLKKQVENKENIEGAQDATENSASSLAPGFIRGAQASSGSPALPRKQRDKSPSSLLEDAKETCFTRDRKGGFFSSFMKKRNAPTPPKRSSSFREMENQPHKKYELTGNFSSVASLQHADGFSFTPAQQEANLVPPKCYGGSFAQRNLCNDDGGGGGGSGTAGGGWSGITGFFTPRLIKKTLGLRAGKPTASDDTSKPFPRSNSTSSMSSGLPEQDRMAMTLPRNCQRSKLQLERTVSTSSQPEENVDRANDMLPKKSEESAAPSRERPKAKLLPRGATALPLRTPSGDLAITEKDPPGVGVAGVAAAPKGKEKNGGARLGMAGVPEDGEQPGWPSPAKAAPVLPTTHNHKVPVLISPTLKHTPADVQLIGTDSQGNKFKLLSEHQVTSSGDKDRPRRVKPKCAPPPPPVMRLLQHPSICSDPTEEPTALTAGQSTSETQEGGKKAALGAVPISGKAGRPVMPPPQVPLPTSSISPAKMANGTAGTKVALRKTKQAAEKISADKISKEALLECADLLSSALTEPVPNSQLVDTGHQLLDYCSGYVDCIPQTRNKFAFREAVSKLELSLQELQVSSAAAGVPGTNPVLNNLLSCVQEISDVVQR
Settings: at 10 µM
Each item that follows carries a reported residual activity.
measurement.kind: residual activity (%)

Nc1n[nH]c2nc3ccccc3nc12 = 83
CCN1/C(=C/C(C)=O)Sc2ccc(OC)cc21 = 81
CCN(CC)CCNC(=O)c1c(C)[nH]c(/C=C2\C(=O)Nc3ccc(Cl)cc32)c1C = 7
COc1ccc(-c2cnc3c(-c4ccsc4)cnn3c2)cc1 = 94

---

Biological target: Tyrosine-protein kinase ABL2 (Homo sapiens) (UniProt P42684)
Details: at 1 µM
Each item that follows carries a reported residual activity.
measurement.kind: residual activity (%)

COc1ccc(-c2cnc3c(-c4ccsc4)cnn3c2)cc1 = 88
CC(C)[C@H](CO)Nc1nc(Nc2cc(N)cc(Cl)c2)c2ncn(C(C)C)c2n1 = 62
O=C1NC(=O)C(c2cn(CCCn3ccnc3)c3ccccc23)=C1Nc1ccccc1 = 111
O=C1Nc2ccc(Cl)cc2/C1=C/c1cc(Cl)c(O)c(Cl)c1 = 80
COc1cc2nccc(Oc3ccc(NC(=S)NC(=O)c4ccccc4C)cc3)c2cc1OC = 50
O=C1Cc2c([nH]c3ccc(Br)cc23)-c2ccccc2N1 = 76
Nc1ncnc2[nH]nc(Nc3ccc(F)cc3)c12 = 70
O=C1NC(=O)c2c1c1c3ccccc3[nH]c1n1cncc21 = 91
CN(C)S(=O)(=O)c1ccc2c(c1)/C(=C/c1cc3c([nH]1)CCCC3)C(=O)N2 = 114
CC(C)(C)n1nc(Cc2cccc3ccccc23)c2c(N)ncnc21 = 68
Fc1ccc(-c2nc3n(c2-c2ccncc2)CCS3)cc1 = 96
O=C(c1cc2cc(O)ccc2[nH]1)c1cc2cc(O)ccc2[nH]1 = 27
O=C(CCCc1ccc(-c2ccccc2F)cc1)Nc1ccc(O)cc1 = 105
O=C(O)/C=C/c1cc(Br)c(Br)c(Br)c1Br = 75
NC(=O)c1cccc(-c2cc(Nc3ccc(OC(F)(F)F)cc3)ncn2)c1 = 88
O=C1NC(=O)C(c2c[nH]c3ccccc23)=C1c1c[nH]c2ccccc12 = 78
Nc1ncnc2c1c(-c1ccc(Oc3ccccc3)cc1)cn2C1CCCC1 = 80
COc1cc2nccc(Oc3ccc(NC(=O)Nc4cc(C)on4)c(Cl)c3)c2cc1OC = -2
COc1ccc(CNC(=O)Nc2ncc([N+](=O)[O-])s2)cc1 = 115
CCCCc1c(-c2ccc(O)cc2)[nH]c2nccnc12 = 75
O=c1cc(N2CCNCC2)oc2c(-c3ccccc3)cccc12 = 97
CC(C)c1nn(-c2c(Cl)cccc2Cl)c2nc(Cc3ccc(OCCO)cc3)[nH]c(=O)c12 = 89
